- system-tested: T1, full-length recombinant human PAD4 (human, UniProt Q9UM07 1-663)
- T1 construct: Full-length recombinant; also called peptidylarginine deiminase 4
- T1 sequence (Q9UM07 whole entry): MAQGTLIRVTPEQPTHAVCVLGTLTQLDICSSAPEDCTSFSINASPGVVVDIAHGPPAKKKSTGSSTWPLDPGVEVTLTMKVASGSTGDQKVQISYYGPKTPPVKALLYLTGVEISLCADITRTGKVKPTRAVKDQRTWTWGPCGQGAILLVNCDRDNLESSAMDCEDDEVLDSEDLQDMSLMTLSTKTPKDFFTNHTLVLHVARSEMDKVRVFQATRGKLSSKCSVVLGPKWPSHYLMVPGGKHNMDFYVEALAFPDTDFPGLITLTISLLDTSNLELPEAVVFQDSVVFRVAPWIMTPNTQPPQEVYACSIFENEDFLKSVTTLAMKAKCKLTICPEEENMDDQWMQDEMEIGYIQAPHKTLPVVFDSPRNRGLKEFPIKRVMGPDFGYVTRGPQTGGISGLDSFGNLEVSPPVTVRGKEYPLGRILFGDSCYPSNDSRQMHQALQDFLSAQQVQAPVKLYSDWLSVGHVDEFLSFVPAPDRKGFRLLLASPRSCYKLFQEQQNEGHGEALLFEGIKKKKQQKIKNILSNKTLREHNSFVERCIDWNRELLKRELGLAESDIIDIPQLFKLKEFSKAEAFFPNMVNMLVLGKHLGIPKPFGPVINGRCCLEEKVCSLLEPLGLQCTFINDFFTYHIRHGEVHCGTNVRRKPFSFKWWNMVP
- protocol-description: ELISA, coated human PAD4; antibody 0.015625 ug/mL
value-type: OD 490/630 nm
A bare number is all that is needed in reply.

Solved entries:
[[record]]
binder = "E9 (antibody, V domains shown, Chicken variable regions in a mouse chimeric antibody (IgG1); also called anti-PAD4 antibody E9) VH: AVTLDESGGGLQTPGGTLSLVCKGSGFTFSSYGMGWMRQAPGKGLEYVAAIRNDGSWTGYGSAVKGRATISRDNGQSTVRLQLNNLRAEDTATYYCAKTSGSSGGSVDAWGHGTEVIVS VL: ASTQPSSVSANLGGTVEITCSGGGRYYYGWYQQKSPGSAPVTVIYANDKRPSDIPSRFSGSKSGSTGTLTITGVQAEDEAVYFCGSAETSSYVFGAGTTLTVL"
value_type = "OD 490/630 nm"
observed = 2.08

[[record]]
binder = "H7 (antibody, V domains shown, Chicken variable regions in a mouse chimeric antibody (IgG1); also called anti-PAD4 antibody H7) VH: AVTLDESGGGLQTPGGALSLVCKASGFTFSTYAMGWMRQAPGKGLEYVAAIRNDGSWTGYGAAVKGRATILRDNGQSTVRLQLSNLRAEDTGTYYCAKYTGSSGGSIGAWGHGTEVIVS VL: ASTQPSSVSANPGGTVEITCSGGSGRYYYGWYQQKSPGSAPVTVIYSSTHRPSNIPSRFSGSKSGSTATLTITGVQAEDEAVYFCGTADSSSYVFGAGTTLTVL"
value_type = "OD 490/630 nm"
observed = 2.07

[[record]]
binder = "G8 (antibody, V domains shown, Chicken variable regions in a mouse chimeric antibody (IgG1); also called anti-PAD4 antibody G8) VH: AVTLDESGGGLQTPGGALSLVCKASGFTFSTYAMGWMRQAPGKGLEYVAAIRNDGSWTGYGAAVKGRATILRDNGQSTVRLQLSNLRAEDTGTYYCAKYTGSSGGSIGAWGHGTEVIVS VL: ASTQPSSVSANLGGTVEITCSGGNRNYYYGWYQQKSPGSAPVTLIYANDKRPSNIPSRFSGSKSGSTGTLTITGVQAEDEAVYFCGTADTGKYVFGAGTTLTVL"
value_type = "OD 490/630 nm"
observed = 2.08


Task: What value of OD 490/630 nm has been recorded for this entry: G6 (antibody, V domains shown, Chicken variable regions in a mouse chimeric antibody (IgG1); also called anti-PAD4 antibody G6) VH: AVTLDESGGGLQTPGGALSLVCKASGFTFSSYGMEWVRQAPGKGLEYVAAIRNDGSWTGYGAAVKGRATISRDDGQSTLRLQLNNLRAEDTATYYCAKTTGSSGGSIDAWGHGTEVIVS VL: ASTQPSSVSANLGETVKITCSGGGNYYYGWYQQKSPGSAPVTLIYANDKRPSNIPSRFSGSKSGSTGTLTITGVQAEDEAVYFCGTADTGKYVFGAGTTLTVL
Result: 2.01
